- Tested on: OVCAR-3 ovarian
- experiment_description: NCI tumour cell line growth inhibition, 48 h
Assignment: determine reported TGI for the given compounds.

IN: Returns the measured TGI for the input compound. Input: O=c1cc(-c2ccccc2)[nH]c2cc3c(cc12)OCO3
OUT: 22.2 µM

IN: Returns the measured TGI for the input compound. Input: Cc1cc(NC(=O)c2ccc(C)c(Nc3nccc(-c4cccnc4)n3)c2)cc(-n2cnc(C)c2)c1
OUT: 4.83 µM

IN: Returns the measured TGI for the input compound. Input: Nc1ccncc1/C=C1/C(=O)Nc2ccccc21
OUT: 76.3 µM

IN: Returns the measured TGI for the input compound. Input: CN1CCOC1(C)CO (centres undefined)
OUT: > 100 µM

IN: Returns the measured TGI for the input compound. Input: Cc1ccc2c(c1CCCC(C)(C)O)C(=O)C(=O)C(C(C)C)=C2O
OUT: > 100 µM

IN: Returns the measured TGI for the input compound. Input: COc1ccc(-c2cc(-c3cccn3C)c(C#N)c(N)n2)cc1OC
OUT: > 100 µM

IN: Returns the measured TGI for the input compound. Input: NS(=O)(=O)c1ccc(-n2c(-c3cccs3)nc3ccc(I)cc3c2=O)cc1
OUT: 35.1 µM

IN: Returns the measured TGI for the input compound. Input: O=C(O)c1cccc(OCCO)c1
OUT: > 100 µM

IN: Returns the measured TGI for the input compound. Input: O=C(O)c1ccc(NNc2cc(=O)[nH]c(=O)[nH]2)cc1
OUT: > 100 µM
